Overview of recorded relative integration efficiency (log2) for various variants
B1: library; a variant is named by its letters at N, in order (parent)
chain: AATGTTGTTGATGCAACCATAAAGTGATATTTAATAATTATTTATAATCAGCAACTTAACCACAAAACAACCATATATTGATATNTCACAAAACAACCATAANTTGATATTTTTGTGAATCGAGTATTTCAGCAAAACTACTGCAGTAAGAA

# Variants of: B1
# Test details: relative integration efficiency (T-RL orientation) vs wild-type transposon end (log2 (normalized fold change)); transposon end mutated: left end; higher = more efficient transposition
# Condition info: with VchCAST RNA-guided transposition machinery (E. coli BL21(DE3) host, lacZ target)
Test readout: relative integration efficiency (log2)

CG T32G :: -0.146
CG A47T :: 0.0568
CG A90T A91T A92T A93T :: -0.557
CG T45C :: -0.326
CG T76C :: -1.06
CG A34T T35A A36T A37T :: 0.189
CG T31G T32G A33C A34C :: -0.592
CG T9A G10C A11T T12A :: -1.59
TA G24A T30A A70C T76A T86G T104G T113A :: -0.533
TA A16C G24T T32G A33C A70C T76A T86G A96C T112G T113C :: -0.726
CG T112A T113A :: -0.318
CG A99G :: -0.278
CG T74A A75T T76A A77T :: -0.759
CG T30G :: -0.614
CG C89A :: 0.031
CG G51C C52G A53T A54T :: -0.34
CG A88T C89G :: 0.178
CG A23T :: 0.086
CG T12A G13A T30A T32A A77C T86G :: -0.36
CA A23G G24T A33T A96C T110A T113A :: -0.516
CG C49A A50C G51T C52A :: -0.71
TA A22T G24T T31C A33C T76A T78G C87A A96C T112G T113C :: -0.16
TA A16C G24T T32G A33C A70C T76A T84A C87A A96C T112G T113C :: -0.234
CG T110A T111A :: -0.513
CG T84A :: -0.0633
CG A44T :: 0.0943
CG T110G :: -0.516
CG A36T A37T T38A T39A :: 0.0771
TA A23G G24T A33T A70C T76A T84A C87A A96C T110A T113A :: 0.00966
CG T31A :: -0.128
CG A67T C68G A69T A70T :: -1.55
CG A95C A96C C97A C98A :: -2.14
CG T32A :: 0.178
CG T30A T31C A77C :: -0.48
CG C60A C61A A62C C63A :: 0.406
CG A119T T120A :: -0.226
TG A23G G24T A33T T76A A77G C87T :: -0.26
CG A59T C60G :: -0.145
CG T8G :: -6.68
CG A22C :: -1.07
CG C61T :: -0.122
CG C61A A62C :: 0.443
CG A75T T76A A77T T78A :: -0.453
TA A16C G24T T32G A33C T76A T78G C87A A96C T112G T113C :: -0.344
TA A16C G24T T32G A33C T76A T78A T84A C87A T104G T113A :: -0.296
CG G117A :: -0.123
